- EXPERIMENT_NOTES: growth inhibitors of H69AR lung tumor, primary screen, human, duplicate replicates (AID 580);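 further: 100% = mean luminescence of untreated wells and 0% = no signal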
- EXPERIMENTAL_PARAMETERS: H69AR lung tumor cells viability, ATP luminescence, 72 h; at 10 µM; hits give low values
The source made the active and inactive calls.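 How the source made its calls: active means viability at or under a set limit in both replicates, limit being median viability minus 3 SD (cut at about 48% in these data, passing the limit was not always enough); inconclusive means at or under the limit in just one replicate; inactive means at or above the limit in both replicates.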
READOUT_LABEL: viability

>  <COMPOUND>
O=C1c2ccccc2C(=O)N1CCCCN1CCN(CCCCN2C(=O)c3ccccc3C2=O)CC1

>  <viability>
97.5% (inactive)

$$$$
>  <COMPOUND>
CC(C)c1nnc(NC(=O)CCC(=O)NCc2ccc3c(c2)OCO3)s1

>  <viability>
97.7% (inactive)

$$$$
>  <COMPOUND>
CCCN(CCC)C(=O)CC(c1ccc(F)cc1)c1ccco1 (stereo unspecified)

>  <viability>
80.8% (inactive)

$$$$

Working through the 5 compounds below one at a time, give viability for each.
1. COCCCn1c(=N)c(C(=O)NCC2CCCO2)cc2c(=O)n3cccc(C)c3nc21 (stereo unspecified)
2. CCC(C)NC(=O)CSC1=Nc2ccccc2C2=NC(CC(=O)NCc3ccccc3)C(=O)N12 (stereo unspecified)
3. O=c1/c(=C/c2ccco2)sc2nc(-c3ccccc3Br)nn12
4. Cn1c(=O)c(=O)n(C)c2cc(S(=O)(=O)N3CCCCC3)ccc21
5. N#Cc1c(N2CCOCC2)nc(N2CCCCC2)c2c1CCN(C1CCCCC1)C2

["98.7% (inactive)", "107% (inactive)", "92.4% (inactive)", "100% (inactive)", "89.2% (inactive)"]

====

- SYSTEM_TESTED: Receptor tyrosine-protein kinase erbB-2 (Homo sapiens) (UniProt P04626)
- Sequence (P04626 whole entry, looked up): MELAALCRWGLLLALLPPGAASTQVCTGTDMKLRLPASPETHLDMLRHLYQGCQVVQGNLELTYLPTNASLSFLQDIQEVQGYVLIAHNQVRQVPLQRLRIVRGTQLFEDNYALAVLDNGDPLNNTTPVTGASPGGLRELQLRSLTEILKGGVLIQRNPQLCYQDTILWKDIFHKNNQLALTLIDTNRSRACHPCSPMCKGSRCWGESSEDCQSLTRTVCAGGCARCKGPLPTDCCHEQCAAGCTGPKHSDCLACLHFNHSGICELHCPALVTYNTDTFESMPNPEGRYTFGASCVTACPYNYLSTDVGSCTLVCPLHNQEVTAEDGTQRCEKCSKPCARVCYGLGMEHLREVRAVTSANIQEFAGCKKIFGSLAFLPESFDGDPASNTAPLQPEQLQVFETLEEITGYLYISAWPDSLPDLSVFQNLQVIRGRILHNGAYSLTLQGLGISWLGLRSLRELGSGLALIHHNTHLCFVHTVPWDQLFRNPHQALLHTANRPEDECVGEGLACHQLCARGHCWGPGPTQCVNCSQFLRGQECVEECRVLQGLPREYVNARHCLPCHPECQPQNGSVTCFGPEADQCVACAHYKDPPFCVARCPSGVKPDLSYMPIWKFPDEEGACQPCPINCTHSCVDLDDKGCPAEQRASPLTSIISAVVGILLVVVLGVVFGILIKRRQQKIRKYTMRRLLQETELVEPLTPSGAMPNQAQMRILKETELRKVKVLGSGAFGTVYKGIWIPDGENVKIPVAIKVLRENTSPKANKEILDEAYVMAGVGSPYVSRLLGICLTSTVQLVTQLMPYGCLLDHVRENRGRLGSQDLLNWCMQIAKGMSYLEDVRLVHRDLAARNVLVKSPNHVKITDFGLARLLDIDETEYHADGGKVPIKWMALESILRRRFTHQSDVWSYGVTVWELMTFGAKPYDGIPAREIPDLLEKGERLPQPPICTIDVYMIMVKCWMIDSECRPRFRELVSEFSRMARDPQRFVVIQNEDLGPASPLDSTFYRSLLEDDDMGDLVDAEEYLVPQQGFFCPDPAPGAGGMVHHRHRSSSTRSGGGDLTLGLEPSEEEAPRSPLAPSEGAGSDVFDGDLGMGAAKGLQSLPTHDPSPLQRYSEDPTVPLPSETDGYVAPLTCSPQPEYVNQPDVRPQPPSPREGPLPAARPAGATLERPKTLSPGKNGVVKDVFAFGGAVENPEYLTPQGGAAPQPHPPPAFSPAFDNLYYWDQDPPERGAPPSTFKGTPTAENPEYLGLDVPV
- EXPERIMENT_NOTES: reducers of endogenous Her2 protein level, primary screen, SKBR3 breast tumor cells, AlphaScreen, ATP viability (AID 461);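 further: lower value means less Her2 protein in the cells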
- EXPERIMENTAL_PARAMETERS: 18-24 h, at 10 µM, hits give low values
Activity calls are given as the source filed them.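 Rule for the calls: active = Her2 level under about 52% in both replicate screens, with viability over 70% of control (limit read from the data); inconclusive = Her2 under the limit in one screen only, or viability under 70%; inactive = Her2 level above the set limit.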
I'd be grateful if you could share measured Her2 level for these entries.

As a guide, the following entries are already answered.
>  <COMPOUND>
CC1CCN(C(=S)c2ccccc2O)CC1

>  <SYSTEM_TESTED>
Receptor tyrosine-protein kinase erbB-2 (Homo sapiens) (UniProt P04626)

>  <OBSERVED>
105% (inactive)

$$$$
>  <COMPOUND>
COc1ccc(CC(=O)NCc2ccccc2)cc1S(=O)(=O)N1CCOCC1

>  <SYSTEM_TESTED>
Receptor tyrosine-protein kinase erbB-2 (Homo sapiens) (UniProt P04626)

>  <OBSERVED>
106% (inactive)

$$$$
>  <COMPOUND>
CCOCCn1c(CN2CCN(c3cccc(Cl)c3)CC2)nc2c1c(=O)n(C)c(=O)n2C

>  <SYSTEM_TESTED>
Receptor tyrosine-protein kinase erbB-2 (Homo sapiens) (UniProt P04626)

>  <OBSERVED>
110% (inactive)

$$$$
>  <COMPOUND>
CCOc1ccccc1N(C(=O)c1ccco1)C(C(=O)NC1CCCC1)c1cccnc1 (stereo not drawn)

>  <SYSTEM_TESTED>
Receptor tyrosine-protein kinase erbB-2 (Homo sapiens) (UniProt P04626)

>  <OBSERVED>
104% (inactive)

$$$$
>  <COMPOUND>
CC(CCc1ccccc1)NC(=O)c1ccc(Br)o1 (stereo not drawn)

>  <SYSTEM_TESTED>
Receptor tyrosine-protein kinase erbB-2 (Homo sapiens) (UniProt P04626)

>  <OBSERVED>
86% (inactive)

$$$$

Working through the 3 compounds below one at a time, give Her2 level for each.
1. CC(C)OC(=O)CSc1nnnn1-c1ccc2c(c1)OCCO2
2. O=c1c[n+]([O-])c2ccccc2n1OCc1ccccn1
3. CC(C)Cn1c(N)c(C(=O)NCc2cccs2)c2nc3ccccc3nc21

1: 84.5% (inactive); 2: 89.5% (inactive); 3: 101% (inactive)

Working through the 3 compounds below one at a time, give Her2 level for each.
1. O=C(CN1CCN(C2CCCCC2)CC1)Nc1ccccc1-c1ccccc1
2. COc1ccc(C)cc1NC(=O)CN1CCN(S(=O)(=O)c2ccc(Cl)cc2)CC1
3. CC(NC(=O)c1cn(C)c2ccc(S(=O)(=O)N3CCCC3)cc2c1=O)c1ccc2c(c1)OCCO2 (stereo not drawn)

1. 61% (inactive)
2. 87% (inactive)
3. 78.5% (inactive)

Working through the 5 compounds below one at a time, give Her2 level for each.
1. Cc1ccc(S(=O)(=O)N2CCN(C(=O)CSc3nnnn3C)C2)cc1
2. CCCn1c(SCC(=O)NC(C)(C)C)nnc1C(C)C
3. C#CC1(O)CC(C)N(C)C(C)C1 (stereo not drawn)
4. Cn1c(SCc2ccccc2)nnc1C1CCCNC1 (stereo not drawn)
5. Cc1cc(-c2ccccc2)nc2cc(C(N)=O)nn12

["104% (inactive)", "79.5% (inactive)", "85% (inactive)", "106% (inactive)", "94% (inactive)"]

Working through the 2 compounds below one at a time, give Her2 level for each.
1. CCOc1ccc(OCC)c2sc(C)nc12
2. COC(=O)c1[nH]c2ccccc2c1NS(=O)(=O)c1ccc(OC)cc1OC

1. 94% (inactive)
2. 82% (inactive)

Working through the 4 compounds below one at a time, give Her2 level for each.
1. CC(C)CCNC(=O)C(c1ccco1)N(CC1CCCO1)C(=O)Cn1nnc2ccccc21 (stereo not drawn)
2. CCOc1ccc2[nH]cc(C(=O)N3CCN(CC)CC3)c(=O)c2c1
3. COCc1cc(=O)[nH]c(Nc2nc3ccccc3o2)n1
4. N#Cc1c(NC(=O)COC(=O)C2CC3C=CC2C3)oc(-c2ccccc2)c1-c1ccccc1 (stereo not drawn)

["100% (inactive)", "104% (inactive)", "80% (inactive)", "80% (inactive)"]

# query: Her2 level of entry COc1ccc(N2CCN(CCNS(=O)(=O)c3cccc4nsnc34)CC2)cc1
91% (inactive)

====

- EXPERIMENT_NOTES: 384-well plate pilot, post-Golgi transport modulator project, inhibition of yeast transport mutant growth (AID 636)
- EXPERIMENTAL_PARAMETERS: absorbance 615 nm, about 18 h, hits give high values
I'd be grateful if you could share measured inhibition for these entries.
One number for each entry, in %.

As a guide, the following entries are already answered.
>  <COMPOUND>
COc1ccccc1CN(Cc1nc2ccccc2c(=O)[nH]1)C(=O)Nc1ccccc1

>  <QUANTITY_UNIT>
%

>  <inhibition>
-4.61

$$$$
>  <COMPOUND>
CCc1cc(-c2[nH]ncc2-c2ccc3c(c2)OCO3)c(O)cc1O

>  <QUANTITY_UNIT>
%

>  <inhibition>
4.94

$$$$
>  <COMPOUND>
CCC12CN3CC(CC)(CN(C1)C3c1ccc(OC(C)C)cc1)C2=O (stereo not given)

>  <QUANTITY_UNIT>
%

>  <inhibition>
-3.78

$$$$
>  <COMPOUND>
O=C(CN(c1ccccc1)S(=O)(=O)c1ccccc1)N1CCN(Cc2ccc3c(c2)OCO3)CC1

>  <QUANTITY_UNIT>
%

>  <inhibition>
-6

$$$$

# query: inhibition of entry Cc1cc(NS(=O)(=O)c2ccc(NC(=O)COc3ccc(Cl)cc3)cc2)no1
-9.32

====

- EXPERIMENT_NOTES: growth inhibitors of H69AR lung tumor, primary screen, human, duplicate replicates (AID 580);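 further: 100% = mean luminescence of untreated wells and 0% = no signal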
- EXPERIMENTAL_PARAMETERS: H69AR lung tumor cells viability, ATP luminescence, 72 h; at 10 µM; hits give low values
I'd be grateful if you could share measured viability for these entries.
Numbers only, in %.

>  <CPD_SMILES>
CCOC(=O)CCC(=O)Nc1ccc(S(=O)(=O)N2CCCC2)cc1

>  <OBSERVED>
102

$$$$

Working through the 7 compounds below one at a time, give viability for each.
1. O=C(CCn1cccc1)N1CCc2ccccc21
2. Cc1ccccc1Cn1c(=O)c2c(nc3n2CCCN3Cc2ccccc2)n(C)c1=O
3. O=c1cc(CSc2nnc(COc3ccc(Cl)cc3)o2)c2ccccc2[nH]1
4. CCOc1cc(C(=O)N(C)Cc2cc3ccccc3[nH]c2=O)cc(OCC)c1OCC
5. CC1(C)Cc2noc(N)c2C(C)(C)N1OC(=O)c1cccs1
6. CCc1cccc(NC(=O)CN(C)S(=O)(=O)c2cccc3nsnc23)c1
7. Cc1ccc(-n2ncc3c(=O)n(CC(=O)NCc4ccco4)cnc32)cc1

1: 101; 2: 78.5; 3: 90.2; 4: 98.6; 5: 102; 6: 91.8; 7: 81.3

Working through the 3 compounds below one at a time, give viability for each.
1. COc1ccccc1C(=O)NCC(=O)Nc1ccccc1
2. COC(=O)c1ccnc(/C=N/O)c1
3. O=C(Nc1cc(C(=O)N2CCCC2)ccc1N1CCCC1)c1ccccc1F

98.5
88.1
101

====

- EXPERIMENT_NOTES: HUVEC growth inhibition – cell-based, human, primary screen (AID 575);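 further: 100% = median of untreated cell wells with 0.1% DMSO on each plate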
- EXPERIMENTAL_PARAMETERS: HUVEC proliferation, CellTiter-Glo luminescence, 72 h; at 10 µM; hits give low values
I'd be grateful if you could share measured viability for these entries.
Give bare numbers, in %.

As a guide, the following entries are already answered.
>  <COMPOUND>
Cc1ccc(S(=O)(=O)NCC(=O)OCC(=O)Nc2ncc(Cl)cc2Cl)cc1

>  <QUANTITY_UNIT>
%

>  <viability>
91.2

$$$$
>  <COMPOUND>
Cc1ccc(C2CC(c3cccc(Br)c3)Nc3nnnn32)cc1 (stereo unspecified)

>  <QUANTITY_UNIT>
%

>  <viability>
56.7

$$$$
>  <COMPOUND>
COc1ccc2c(c1)c(CC(=O)OCC(=O)O)c(C)n2C(=O)c1ccc(Cl)cc1

>  <QUANTITY_UNIT>
%

>  <viability>
66.8

$$$$
>  <COMPOUND>
CC(=O)OCC(=O)[C@@]1(O)CC[C@H]2[C@@H]3CCC4=CC(=O)CC[C@]4(C)[C@H]3[C@@H](O)C[C@@]21C

>  <QUANTITY_UNIT>
%

>  <viability>
74.1

$$$$
>  <COMPOUND>
O=c1c(-c2ccc(F)cc2)coc2c3c(ccc12)OCCO3

>  <QUANTITY_UNIT>
%

>  <viability>
120

$$$$
>  <COMPOUND>
Clc1ccc(Cl)c(-c2nn3c(Cn4cnc5ccccc54)nnc3s2)c1

>  <QUANTITY_UNIT>
%

>  <viability>
98.5

$$$$

Working through the 5 compounds below one at a time, give viability for each.
1. O=S(CC(O)COCc1ccc(Cl)cc1)c1ccccn1 (stereo unspecified)
2. CC(C)Cc1ccc(C(C)C(=O)O)cc1 (stereo unspecified)
3. Cc1nc(NC2=NCN(CCN3CCOCC3)CN2)nc2c(C)cccc12
4. COc1cccc(C(c2nnnn2Cc2ccccc2)N2CCN(C(=O)c3ccco3)CC2)c1OC (stereo unspecified)
5. Nc1nnc(-c2cc3ccccc3oc2=O)s1

[111, 84.3, 77.3, 77.5, 91.8]
